test system: rabbit serum obtained by immunizing a rabbit with the SARS-CoV strain Frankfurt 1; type: binding; design: unit not given here
Binding of a rabbit serum to linear peptides values, listed per item
VALUE_TYPE: Binding of a rabbit serum to linear peptides

SEQUENCE_STRING | RECORDED_MEASUREMENT
TTDTGIENATFFIFN | 0.1
ESTQITTDTGIENAT | 0.1
AFLAVFQSATKIIAL | 0.2
IDGSSGVANPAMDPI | 0.1
TMSLYMAISPKFTTS | 0.2
SVTDTIVVTEGDGIS | 0.1
GVKDYVVVHGYFTEV | 0.1
TATIPLQASLPFGWL | 0.1
PLLYDANYFVCWHTH | 0.1

###

Binding of serum 37 to looped/cyclic peptides of protein X5 of SARS-CoV Urbani values, listed per item
tested on: antibodies in sera from SARS patients (sera 1a, 1b, 2, 6, 37, 62, London, SARS-yellow, SARS-green); type: binding, human; set-up: unit not given here
VALUE_TYPE: Binding of serum 37 to looped/cyclic peptides of protein X5 of SARS-CoV Urbani

SEQUENCE_STRING | RECORDED_MEASUREMENT
STAWLCALGKVLPFH | 0.4
GNTYSTAWLCALGKV | 0.5
HRWHTMVQTCTPNVT | 0.3
WLCALGKVLPFHRWH | 0.5
LGKVLPFHRWHTMVQ | 0.5

###

test system: antibodies in sera from SARS patients (sera 1a, 1b, 2, 6, 37, 62, London, SARS-yellow, SARS-green); format: binding, human; set-up: unit not given here
Binding of serum 6 to linear peptides of protein N of SARS-CoV Urbani values, listed per item
VALUE_TYPE: Binding of serum 6 to linear peptides of protein N of SARS-CoV Urbani

SEQUENCE_STRING | RECORDED_MEASUREMENT
NNQNGGRNGARPKQR | 0.3
NNNAATVLQLPQGTT | 0.1
ASLPYGANKEGIVWV | 0.1
GAIKLDDKDPQFKDN | 0.2
GARPKQRRPQGLPNN | 0.1
GPDDQIGYYRRATRR | 0.2
WFTALTQHGKEELRF | 0.2
DNVILLNKHIDAYKT | 0.1
ADMDDFSRQLQNSMS | 1.5
YFYYLGTGPEASLPY | 0.2
GMEVTPSGTWLTYHG | 0.2
PAADMDDFSRQLQNS | 0.6
EGIVWVATEGALNTP | 0.2
SGTWLTYHGAIKLDD | 0.1
KKDKKKKTDEAQPLP | 0.2
SGPDDQIGYYRRATR | 0.2
GKMKELSPRWYFYYL | 0.1
RITFGGPTDSTDNNQ | 0.1

###

tested on: antibodies in sera from SARS patients (sera 1a, 1b, 2, 6, 37, 62, London, SARS-yellow, SARS-green); type: binding, human
Binding of serum 1a to looped/cyclic peptide (PEPSCAN-ELISA) values, listed per item
VALUE_TYPE: Binding of serum 1a to looped/cyclic peptide (PEPSCAN-ELISA)

SEQUENCE_STRING | RECORDED_MEASUREMENT
MDLFMRFFTLGSITA | 0.5
WKCKSKNPLLYDANY | 0.6
SLPFGWLVIGVAFLA | 0.3
LYDANYFVCWHTHNY | 0.6
PLLYDANYFVCWHTH | 0.6
TIYSHLLLVAAGMEA | 0.5
FMRFFTLGSITAQPV | 0.5
IYFLQCINACRIIMR | 0.6
FQFICNLLLLFVTIY | 0.2
WQLALYKGFQFICNL | 0.6
MRCWLCWKCKSKNPL | 0.2
LQASLPFGWLVIGVA | 0.4
KRWQLALYKGFQFIC | 0.6
QCINACRIIMRCWLC | 0.6
YKGFQFICNLLLLFV | 0.3

Data provenance is patent US20070128217A1.
